Origin of measurements: ChEMBL document CHEMBL1201862

Tested on: 786-0
method.notes: NCI tumour cell line growth inhibition, 48 h
Calls of active or inactive are those of the source. No stated cut-off is given here; in the data, active = GI50 up to about 1.1 µM and inactive = higher.
# GI50 values compiled below
experimental.endpoint: GI50

[[record]]
compound = "CN1CCCC2[C@@H]3CCC4c5nonc5CC[C@]4(C)C3CC[C@@]21C (stereo partly specified)"
system_tested = "786-0"
experimental_endpoint = "GI50"
experimental_value = "> 100 µM (inactive)"

[[record]]
compound = "O=S1(=O)OCCCOS(=O)(=O)C1Br"
system_tested = "786-0"
experimental_endpoint = "GI50"
experimental_value = "> 100 µM (inactive)"

[[record]]
compound = "O=c1n(C2CCCCC2)c(=C(Cl)Cl)c(=C(Cl)Cl)n1C1CCCCC1"
system_tested = "786-0"
experimental_endpoint = "GI50"
experimental_value = "> 100 µM (inactive)"

[[record]]
compound = "Cn1c2ccccc2n2c(=O)c(-c3ccc(O)cc3)nnc12"
system_tested = "786-0"
experimental_endpoint = "GI50"
experimental_value = "40.2 µM (inactive)"

[[record]]
compound = "ON[C@H]1C[C@@H](n2cnc3c(NC4CC4)ncnc32)[C@H](O)[C@@H]1O"
system_tested = "786-0"
experimental_endpoint = "GI50"
experimental_value = "> 100 µM (inactive)"

[[record]]
compound = "CC1CC(C)[C@H](O)C([C@H](O)CC2CC(=O)N(C)C(=O)C2)C1 (stereo partly specified)"
system_tested = "786-0"
experimental_endpoint = "GI50"
experimental_value = "> 100 µM (inactive)"

[[record]]
compound = "CCCCCCCCCCCOC(=S)NC(C)C"
system_tested = "786-0"
experimental_endpoint = "GI50"
experimental_value = "19.1 µM (inactive)"

[[record]]
compound = "O=C(/C=C(\\Nc1ccccc1O)c1ccccc1)C(=O)NC12CC3CC(CC(C3)C1)C2"
system_tested = "786-0"
experimental_endpoint = "GI50"
experimental_value = "> 10 µM (inactive)"

[[record]]
compound = "NCCN/C(=N\\c1ccccc1)Nc1ccccc1"
system_tested = "786-0"
experimental_endpoint = "GI50"
experimental_value = "> 100 µM (inactive)"

[[record]]
compound = "Cn1c(=O)c2c(nc3n2C(CCl)CO3)n(C)c1=O (stereo unspecified)"
system_tested = "786-0"
experimental_endpoint = "GI50"
experimental_value = "> 100 µM (inactive)"

[[record]]
compound = "CCOC(=O)[C@@]12C(C)=CC(=O)O[C@]1(C)C[C@H]2C#N"
system_tested = "786-0"
experimental_endpoint = "GI50"
experimental_value = "> 100 µM (inactive)"

